Target: T1, human ROR1 extracellular domain-Fc fusion (human, UniProt Q01973 30-406)
T1 construct: extracellular domain; also called hROR1; ROR1-hFc
Experiment: SPR, hROR1 ECD-Fc on chip
REPORTED_PROPERTY: kon (M⁻¹ s⁻¹)

kon for D3 humanised EL V4 (VNAR, also called D3 EL V4) VNAR: ASVNQSPSSLSASVGDRVTITCVLTDTSYGLYSTSWYQQKPGTTDWERMSIGGRYVESVNKRAKSFTLTISSLQPEDFATYYCKAQSGMAISTGSGHGYNWYDGAGTKVEIK is 1.38e+06

P: D3 humanised EL V2 (VNAR, also called D3 EL V2) VNAR: ASVNQSPSSLSASVGDRVTITCVLTDTSYGLYSTSWFRKNPGTTDWERMSIGGRYVESVNKRAKSFTLTISSLQPEDFATYYCKAQSGMAISTGSGHGYNWYDGAGTKVEIK
Q: B1 G2 (loop-grafted humanised B1) (VNAR, humanised VNAR) VNAR: TRVDQSPSSLSASVGDRVTITCVLTGANYGLASTYWYRKNPGSSNQERISISGRYSESVNKRTMSFTLTISSLQPEDSATYYCRAYPWGAGAPWLVQWYDGAGTKVEIKQ
Which value of kon is smaller, the one for P or the one for Q ? Identify your selection by its label.
Q
